Test system: Pyricularia oryzae
Type: cell-based
test settings: peptide 1 μM; 25° C., 1 day or 2 days
Ends that are not written are not given here.
I'd be grateful if you could share measured Plate antimicrobial activity test Pyricularia oryzae (level) for these entries.

seq_string="GFPAFSER (listed as Solanum lycopersicum) [TsORF18-2-8aa-3]" observed=0

Kindly give each listed record's Plate antimicrobial activity test Pyricularia oryzae (level).
1. RKFWRIWK (listed as Solanum lycopersicum) [TsORF18-2-8aa-12]
2. YYGFPAFSERTRKFWRIWKGKT [TsORF18-2]

Marked response:
[0, 0]

====

System: Colletotrichum destructivum
Format: cell-based
test settings: peptide 100 μM; 25° C., 1 day or 2 days
Ends that are not written are not given here.
Consider the following sequences; for each one, report its Plate antimicrobial activity test Colletotrichum destructivum (level).
One number for each entry.

Field: example entries. Status: answers known.
seq_string="AFSERTRK (listed as Solanum lycopersicum) [TsORF18-2-8aa-6]" observed=0
seq_string="GFPAFSER (listed as Solanum lycopersicum) [TsORF18-2-8aa-3]" observed=0
seq_string="FSERTRKF (listed as Solanum lycopersicum) [TsORF18-2-8aa-7]" observed=0
seq_string="ILLSLEIFERKFSRSVWYYGFPAFSERTRKFWRIWKGKTS [TsORF18-40aa]" observed=3
seq_string="ERTRKFWR (listed as Solanum lycopersicum) [TsORF18-2-8aa-9]" observed=0
seq_string="TRKFWRIW (listed as Solanum lycopersicum) [TsORF18-2-8aa-11]" observed=3
seq_string="RTRKFWRI (listed as Solanum lycopersicum) [TsORF18-2-8aa-10]" observed=3
seq_string="RKFWRIWK (listed as Solanum lycopersicum) [TsORF18-2-8aa-12]" observed=3

Hi team, please reply with Plate antimicrobial activity test Colletotrichum destructivum (level) for each item in this list.
1. ILLSLEIFERKFSRSVWYYGFP [TsORF18-1]
2. FWRIWKGK (listed as Solanum lycopersicum) [TsORF18-2-8aa-14]

Marked response:
1: 0; 2: 3
